B1: HDV Ribozyme (parent)
chain: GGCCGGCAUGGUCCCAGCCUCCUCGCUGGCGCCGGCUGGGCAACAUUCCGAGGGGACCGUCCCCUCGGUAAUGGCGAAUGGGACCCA

Variants of: B1
assay.info: self-cleavage, relative activity (ratio to wild type); higher = more cleavage; co-transcriptional
Mark false for self-cleavage values under 0.2, and true for everything at or above.

Solved entries (count: 6):
G28C G74U: false
C61A C84U: true
A16G U60A: true
U9A A78C: true
C30G C58A: false
C19U A78C: false

*Q* Could you verify whether the entry C75G G82C shows self-cleavage of no less than 0.2?
*A* true

*Q* Could you verify whether the entry C21U G74A shows self-cleavage of no less than 0.2?
*A* false

*Q* Could you verify whether the entry G5A U46C shows self-cleavage of no less than 0.2?
*A* false

*Q* Could you verify whether the entry G52C G82U shows self-cleavage of no less than 0.2?
*A* true

*Q* Could you verify whether the entry C64A A83U shows self-cleavage of no less than 0.2?
*A* true
